Target: TgCDPK1 (Toxoplasma gondii, UniProt Q9BJF5)
Construct: The TgCDPK1 open reading frame was amplified by PCR from a Toxoplasma cDNA library; made in house
Sequence (Q9BJF5 entry or part of it): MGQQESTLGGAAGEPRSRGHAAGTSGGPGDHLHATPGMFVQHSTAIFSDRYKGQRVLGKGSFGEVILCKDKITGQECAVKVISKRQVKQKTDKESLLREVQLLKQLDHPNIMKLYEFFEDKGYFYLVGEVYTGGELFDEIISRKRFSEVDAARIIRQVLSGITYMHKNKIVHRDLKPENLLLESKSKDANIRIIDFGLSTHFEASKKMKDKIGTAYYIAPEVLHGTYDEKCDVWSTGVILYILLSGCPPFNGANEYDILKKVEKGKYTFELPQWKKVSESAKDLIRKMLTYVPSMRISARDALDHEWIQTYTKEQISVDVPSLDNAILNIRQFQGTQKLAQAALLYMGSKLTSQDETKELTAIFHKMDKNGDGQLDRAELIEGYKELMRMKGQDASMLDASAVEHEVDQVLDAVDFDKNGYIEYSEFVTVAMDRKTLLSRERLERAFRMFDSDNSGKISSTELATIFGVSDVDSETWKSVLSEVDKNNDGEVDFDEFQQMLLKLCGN
Experiment: CDPK assay with Syntide-2, T. gondii CDPK1
Assay type: biochemical
measured_quantity: IC50 (nM)
Give the value in nM but do not write nM after it.

Value lookup for IC50; key = CN1CCC(c2ccn3c(-c4ccnc(N)n4)c(-c4ccc(F)cc4)nc3c2)CC1 [Compound 39] 0.5

====

Tested on: T. gondii
Assay: Parasite growth inhibition, modified [3H]-uracil uptake assay in infected HFF cell monolayers
Type: cell-based, Toxoplasma gondii
Conditions: Toxoplasma gondii; uracil uptake assay, infected HFF cell monolayers; read-out: IC50
measured_quantity: IC50 (nM)
Give the value in nM but do not write nM after it.

Value lookup for IC50; key = CC(C)[C@H](CO)Nc1nc(Nc2ccc(C(=O)O)c(Cl)c2)c2ncn(C(C)C)c2n1 [purvalanol B] 260

====

Target: Toxoplasma gondii calmodulin domain-like protein kinase 1 (FLAGTgCDPK1, recombinant) (Toxoplasma gondii, UniProt Q9BJF5)
Construct: FLAG (C)
Sequence (Q9BJF5 entry or part of it): as above
Test: Kinase assay, inhibition of recombinant TgCDPK1
Conditions: CDK inhibitor study (text to Table 2)
measured_quantity: IC50 (nM)
Give the value in nM but do not write nM after it.

Value lookup for IC50; key = O=C1Nc2ccccc2/C1=C1/Nc2ccccc2/C1=N\O 175

====

System: T. gondii tachyzoites
Experiment: [3H]-uracil uptake assay of parasite growth inhibition in infected HFF cell monolayers
Type: cell-based, Toxoplasma gondii
Details: Toxoplasma gondii; infected HFF cell monolayers; read-out: IC50, antiparasitic activity in the whole cell assay
measured_quantity: IC50

Value lookup for IC50; key = O=C1Cc2c([nH]c3ccc([N+](=O)[O-])cc23)-c2ccccc2N1 1200 nM

====

Target: TgCKIα (Toxoplasma gondii, UniProt Q6QNM1)
Sequence (Q6QNM1 whole entry, looked up): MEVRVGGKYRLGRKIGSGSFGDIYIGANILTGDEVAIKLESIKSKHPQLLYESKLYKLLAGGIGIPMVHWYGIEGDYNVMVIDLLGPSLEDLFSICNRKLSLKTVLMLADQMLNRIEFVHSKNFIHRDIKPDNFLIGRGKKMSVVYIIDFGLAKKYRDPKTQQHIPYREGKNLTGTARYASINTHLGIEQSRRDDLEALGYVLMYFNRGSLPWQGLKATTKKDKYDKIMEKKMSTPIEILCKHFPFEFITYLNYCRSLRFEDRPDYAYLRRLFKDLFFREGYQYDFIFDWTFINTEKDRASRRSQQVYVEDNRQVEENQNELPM
Experiment: Casein kinase assay, TgCKIα (recombinant FLAGTgCKIα or partially purified native)
Format: biochemical
Parameters: other: recombinant or native forms of TgCKIα
Below, each of the compounds is paired with its reported IC50 value.

CC(C)[C@H](CO)Nc1nc(Nc2cc(N)cc(Cl)c2)c2ncn(C(C)C)c2n1 | 40 to 60 nM

# next compound below
Value lookup for IC50; key = NC1=NC(=O)/C(=C2\CCNC(=O)c3[nH]c(Br)cc32)N1 7 to 10 nM

====

Molecular target: TgCKIα (Toxoplasma gondii, UniProt Q6QNM1)
Assay: Casein kinase assay, TgCKIα (recombinant FLAGTgCKIα or partially purified native)
Type: biochemical
Design: Km(app), native TgCKIα; other: substrate titration, 2 μM ATP; IC50, nativeTgCKIα; other: partially purified native enzyme from Toxoplasma tachyzoites; sensitivity of native TgCKIα phosphopeptide kinase activity (HiTrapQ fractions 5-9); other: 0.2 μM hymenialdisine or 1
measured_quantity: pIC50
# pIC50 = -log10(concentration in molar units)

Value lookup for pIC50; key = CN1CCC(c2ccn3c(-c4ccnc(N)n4)c(-c4ccc(F)cc4)nc3c2)CC1 [Compound 39] 7.82

====

Molecular target: FLAGEtCDPK1 (Eimeria tenella, UniProt Q3HNM4)
Sequence (Q3HNM4 entry or part of it): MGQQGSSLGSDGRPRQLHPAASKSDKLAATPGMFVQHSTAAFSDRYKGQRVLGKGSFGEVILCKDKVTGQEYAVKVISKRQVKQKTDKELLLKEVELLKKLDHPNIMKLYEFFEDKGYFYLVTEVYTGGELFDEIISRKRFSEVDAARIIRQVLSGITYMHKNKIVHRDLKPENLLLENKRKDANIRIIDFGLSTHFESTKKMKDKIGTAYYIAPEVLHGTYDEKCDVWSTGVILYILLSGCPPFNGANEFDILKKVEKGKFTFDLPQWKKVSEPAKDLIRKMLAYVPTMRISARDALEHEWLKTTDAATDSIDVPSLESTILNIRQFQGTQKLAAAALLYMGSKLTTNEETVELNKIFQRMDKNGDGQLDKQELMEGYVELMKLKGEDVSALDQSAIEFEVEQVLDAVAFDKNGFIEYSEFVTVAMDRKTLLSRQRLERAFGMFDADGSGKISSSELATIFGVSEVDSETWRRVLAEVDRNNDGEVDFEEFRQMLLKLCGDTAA
Assay: Protein kinase assay, FLAGEtCDPK1
Conditions: recombinant enzyme, dose response titrations
measured_quantity: pIC50
# pIC50 = -log10(concentration in molar units)

Value lookup for pIC50; key = CN1CCC(c2ccn3c(-c4ccnc(N)n4)c(-c4ccc(F)cc4)nc3c2)CC1 6.90

====

Tested on: T. gondii tachyzoites
Test: [3H]-uracil uptake assay of parasite growth inhibition in infected HFF cell monolayers
Type: cell-based, Toxoplasma gondii
Conditions: infected HFF cell monolayers, 36-48 hours; read-out: IC50 against T. gondii in the uracil uptake assay
measured_quantity: pIC50
# pIC50 = -log10(concentration in molar units)

CN1CCC(c2cc(-c3ccncc3)c(-c3ccc(F)cc3)[nH]2)CC1 | 6.70

Value lookup for pIC50; key = CC(C)[C@H](CO)Nc1nc(Nc2ccc(C(=O)O)c(Cl)c2)c2ncn(C(C)C)c2n1 6.59

====

Target: rat CKIδ (Rattus norvegicus, UniProt Q06486)
Sequence (Q06486 1-317 limits assumed): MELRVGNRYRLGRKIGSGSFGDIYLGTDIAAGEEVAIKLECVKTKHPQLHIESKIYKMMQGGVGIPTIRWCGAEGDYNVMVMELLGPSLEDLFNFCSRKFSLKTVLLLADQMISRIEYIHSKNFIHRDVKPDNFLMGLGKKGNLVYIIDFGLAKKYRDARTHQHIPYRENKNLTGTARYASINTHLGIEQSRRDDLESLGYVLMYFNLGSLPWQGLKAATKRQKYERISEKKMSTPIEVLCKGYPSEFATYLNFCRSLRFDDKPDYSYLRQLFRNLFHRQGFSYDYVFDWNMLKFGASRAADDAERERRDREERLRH
Assay: Casein kinase assay, recombinant rat CKIδ control enzyme
Details: read-out: IC50 against rodent CKIδ
measured_quantity: pIC50
# pIC50 = -log10(concentration in molar units)

Value lookup for pIC50; key = NC1=NC(=O)/C(=C2\CCNC(=O)c3[nH]c(Br)cc32)N1 7.22
